Experiment: Therapeutic index, ratio of EC50 for human RBC hemolytic activity to MIC for Escherichia coli ATCC 25922
Details: human red blood cells (RBC), read-out: TI
# Lookup of reported selectivity ratio keyed by entry
Lab note: jot down the number only; don't add units.

Study these solved cases before continuing.
given_smiles=CN(C)CCNC(=O)C(CN)(Cc1ccc(C(C)(C)C)cc1)Cc1ccc(C(C)(C)C)cc1.O=C(O)C(F)(F)F.O=C(O)C(F)(F)F readout_number=37
given_smiles=CN1CCN(C(=O)C(CN)(Cc2ccc(C(C)(C)C)cc2)Cc2ccc(C(C)(C)C)cc2)CC1.O=C(O)C(F)(F)F.O=C(O)C(F)(F)F readout_number=23
given_smiles=CN(C)CCN1CCN(C(=O)C(CN)(Cc2ccc(C(C)(C)C)cc2)Cc2ccc(C(C)(C)C)cc2)CC1.O=C(O)C(F)(F)F.O=C(O)C(F)(F)F readout_number=26
given_smiles=CN(C)CCNC(=O)C(CN)(CCCc1ccccc1)CCCc1ccccc1.O=C(O)C(F)(F)F.O=C(O)C(F)(F)F readout_number=3.2
given_smiles=CN1CCN(C(=O)C(CN)(Cc2ccc(C(F)(F)F)cc2)Cc2ccc(C(F)(F)F)cc2)CC1.O=C(O)C(F)(F)F.O=C(O)C(F)(F)F readout_number=7.5

selectivity ratio reading for CN(C)CCNC(=O)C(CN)(Cc1ccc(C(F)(F)F)cc1)Cc1ccc(C(F)(F)F)cc1.O=C(O)C(F)(F)F.O=C(O)C(F)(F)F : 9.4

Please fill in: selectivity ratio reported for CN(C)CCNC(=O)C(CN)(Cc1ccc2ccccc2c1)Cc1ccc2ccccc2c1.O=C(O)C(F)(F)F.O=C(O)C(F)(F)F = 5.1

Lookup result for CN(C)CCN1CCN(C(=O)C(CN)(Cc2ccc3ccccc3c2)Cc2ccc3ccccc3c2)CC1.O=C(O)C(F)(F)F.O=C(O)C(F)(F)F ; measured selectivity ratio: 8.5

Value of measured selectivity ratio for the entry CN(C)CCN1CCN(C(=O)C(CN)(Cc2ccc(C(F)(F)F)cc2)Cc2ccc(C(F)(F)F)cc2)CC1.O=C(O)C(F)(F)F.O=C(O)C(F)(F)F : 8.6

Record NCCNC(=O)C(CN)(Cc1ccc2ccccc2c1)Cc1ccc2ccccc2c1.O=C(O)C(F)(F)F.O=C(O)C(F)(F)F , field selectivity ratio: 19

Measured selectivity ratio of NCCNC(=O)C(CN)(CCCc1ccccc1)CCCc1ccccc1.O=C(O)C(F)(F)F.O=C(O)C(F)(F)F : 4.1

The reported value for CN1CCN(C(=O)C(CN)(Cc2ccc3ccccc3c2)Cc2ccc3ccccc3c2)CC1.O=C(O)C(F)(F)F.O=C(O)C(F)(F)F in terms of selectivity ratio is 14

Recorded selectivity ratio (compound CC(C)(C)c1ccc(CC(CN)(Cc2ccc(C(C)(C)C)cc2)C(=O)NCCN)cc1.O=C(O)C(F)(F)F.O=C(O)C(F)(F)F ): 2.3

Recorded result, NCCNC(=O)C(CN)(Cc1ccc(C(F)(F)F)cc1)Cc1ccc(C(F)(F)F)cc1.O=C(O)C(F)(F)F.O=C(O)C(F)(F)F , selectivity ratio: 8

* * *

Tested on: Pseudomonas aeruginosa
Test: Antimicrobial activity against Pseudomonas aeruginosa ATCC 27853
Format: functional
Below, each entry is listed alongside its reported MIC.

Answered cases to consult:
given_smiles=CN(C)CCNC(=O)C(CN)(Cc1ccc(C(C)(C)C)cc1)Cc1ccc(C(C)(C)C)cc1.O=C(O)C(F)(F)F.O=C(O)C(F)(F)F result="74 µM"
given_smiles=NCCNC(=O)C(CN)(Cc1ccc2ccccc2c1)Cc1ccc2ccccc2c1.O=C(O)C(F)(F)F.O=C(O)C(F)(F)F result="55 µM"
given_smiles=CC(C)(C)c1ccc(CC(CN)(Cc2ccc(C(C)(C)C)cc2)C(=O)NCCN)cc1.O=C(O)C(F)(F)F.O=C(O)C(F)(F)F result="23 µM"
given_smiles=CN(C)CCNC(=O)C(CN)(Cc1ccc2ccccc2c1)Cc1ccc2ccccc2c1.O=C(O)C(F)(F)F.O=C(O)C(F)(F)F result="300 µM"
given_smiles=CN(C)CCN1CCN(C(=O)C(CN)(Cc2ccc(C(C)(C)C)cc2)Cc2ccc(C(C)(C)C)cc2)CC1.O=C(O)C(F)(F)F.O=C(O)C(F)(F)F result="255 µM"

With those in mind, consider the next compound.
MIC of CN1CCN(C(=O)C(CN)(Cc2ccc(C(C)(C)C)cc2)Cc2ccc(C(C)(C)C)cc2)CC1.O=C(O)C(F)(F)F.O=C(O)C(F)(F)F , assay on Pseudomonas aeruginosa, is 289 µM

* * *

Assay: Therapeutic index, ratio of EC50 for human RBC hemolytic activity to MIC for methicillin-resistant Staphylococcus aureus ATCC 33591
Details: human red blood cells (RBC), read-out: TI
Quantity: selectivity ratio
Could you keep your reply to the number by itself?

// known answers, use as guide
given_smiles=CN(C)CCNC(=O)C(CN)(Cc1ccc(C(C)(C)C)cc1)Cc1ccc(C(C)(C)C)cc1.O=C(O)C(F)(F)F.O=C(O)C(F)(F)F quantity="selectivity ratio" readout_number=37
given_smiles=CN1CCN(C(=O)C(CN)(Cc2ccc(C(C)(C)C)cc2)Cc2ccc(C(C)(C)C)cc2)CC1.O=C(O)C(F)(F)F.O=C(O)C(F)(F)F quantity="selectivity ratio" readout_number=23
given_smiles=CN(C)CCN1CCN(C(=O)C(CN)(Cc2ccc(C(C)(C)C)cc2)Cc2ccc(C(C)(C)C)cc2)CC1.O=C(O)C(F)(F)F.O=C(O)C(F)(F)F quantity="selectivity ratio" readout_number=26
given_smiles=NCCNC(=O)C(CN)(CCCc1ccccc1)CCCc1ccccc1.O=C(O)C(F)(F)F.O=C(O)C(F)(F)F quantity="selectivity ratio" readout_number=23
given_smiles=CN1CCN(C(=O)C(CN)(Cc2ccc(C(F)(F)F)cc2)Cc2ccc(C(F)(F)F)cc2)CC1.O=C(O)C(F)(F)F.O=C(O)C(F)(F)F quantity="selectivity ratio" readout_number=38
given_smiles=CC(C)(C)c1ccc(CC(CN)(Cc2ccc(C(C)(C)C)cc2)C(=O)NCCN)cc1.O=C(O)C(F)(F)F.O=C(O)C(F)(F)F quantity="selectivity ratio" readout_number=4.7

Shift focus to the following entry.
selectivity ratio recorded for this molecule, CN(C)CCNC(=O)C(CN)(Cc1ccc(C(F)(F)F)cc1)Cc1ccc(C(F)(F)F)cc1.O=C(O)C(F)(F)F.O=C(O)C(F)(F)F , is 66

* * *

Test: Therapeutic index, ratio of EC50 for human RBC hemolytic activity to MIC for Pseudomonas aeruginosa ATCC 27853
Conditions: human red blood cells (RBC), read-out: TI
Quantity: selectivity ratio
Just the number, please, no unit attached.

given_smiles=CN(C)CCNC(=O)C(CN)(Cc1ccc2ccccc2c1)Cc1ccc2ccccc2c1.O=C(O)C(F)(F)F.O=C(O)C(F)(F)F readout_number=0.4

Lab note: CN1CCN(C(=O)C(CN)(Cc2ccc(C(C)(C)C)cc2)Cc2ccc(C(C)(C)C)cc2)CC1.O=C(O)C(F)(F)F.O=C(O)C(F)(F)F gave selectivity ratio of 1.2

Measured selectivity ratio of CN(C)CCN1CCN(C(=O)C(CN)(Cc2ccc(C(C)(C)C)cc2)Cc2ccc(C(C)(C)C)cc2)CC1.O=C(O)C(F)(F)F.O=C(O)C(F)(F)F : 1.3

Field selectivity ratio (entry CC(C)(C)c1ccc(CC(CN)(Cc2ccc(C(C)(C)C)cc2)C(=O)NCCN)cc1.O=C(O)C(F)(F)F.O=C(O)C(F)(F)F ) reads 0.8

// CN(C)CCNC(=O)C(CN)(Cc1ccc(C(C)(C)C)cc1)Cc1ccc(C(C)(C)C)cc1.O=C(O)C(F)(F)F.O=C(O)C(F)(F)F : selectivity ratio value = 3.7

Quick note, selectivity ratio for NCCNC(=O)C(CN)(Cc1ccc2ccccc2c1)Cc1ccc2ccccc2c1.O=C(O)C(F)(F)F.O=C(O)C(F)(F)F landed at 8.3

* * *

Below, each entry is listed alongside its reported selectivity ratio.
Experiment: Therapeutic index, ratio of EC50 for human RBC hemolytic activity to MIC for methicillin-resistant Staphylococcus epidermidis ATCC 27626
Settings: human red blood cells (RBC), read-out: TI
Field format: numeric only.

given_smiles=CN1CCN(C(=O)C(CN)(Cc2ccc3ccccc3c2)Cc2ccc3ccccc3c2)CC1.O=C(O)C(F)(F)F.O=C(O)C(F)(F)F readout_number=20
given_smiles=CN(C)CCNC(=O)C(CN)(Cc1ccc2ccccc2c1)Cc1ccc2ccccc2c1.O=C(O)C(F)(F)F.O=C(O)C(F)(F)F readout_number=16
given_smiles=CN(C)CCN1CCN(C(=O)C(CN)(Cc2ccc(C(C)(C)C)cc2)Cc2ccc(C(C)(C)C)cc2)CC1.O=C(O)C(F)(F)F.O=C(O)C(F)(F)F readout_number=26

Moving on to another compound below.
selectivity ratio for CN(C)CCNC(=O)C(CN)(Cc1ccc(C(F)(F)F)cc1)Cc1ccc(C(F)(F)F)cc1.O=C(O)C(F)(F)F.O=C(O)C(F)(F)F is 22

* * *

Test: Therapeutic index, ratio of EC50 for human RBC hemolytic activity to MIC for methicillin-resistant Staphylococcus epidermidis ATCC 27626
Details: human red blood cells (RBC), read-out: TI
Quantity: selectivity ratio
Note: the reply should be a number with no unit written.

given_smiles=CC(C)(C)c1ccc(CC(CN)(Cc2ccc(C(C)(C)C)cc2)C(=O)NCCN)cc1.O=C(O)C(F)(F)F.O=C(O)C(F)(F)F readout_number=4.7

# selectivity ratio of NCCNC(=O)C(CN)(Cc1ccc2ccccc2c1)Cc1ccc2ccccc2c1.O=C(O)C(F)(F)F.O=C(O)C(F)(F)F = 117

Lab book: selectivity ratio of CN(C)CCNC(=O)C(CN)(Cc1ccc(C(C)(C)C)cc1)Cc1ccc(C(C)(C)C)cc1.O=C(O)C(F)(F)F.O=C(O)C(F)(F)F noted as 74

Input CN1CCN(C(=O)C(CN)(Cc2ccc(C(F)(F)F)cc2)Cc2ccc(C(F)(F)F)cc2)CC1.O=C(O)C(F)(F)F.O=C(O)C(F)(F)F . Output selectivity ratio: 7.5

Measured selectivity ratio of NCCNC(=O)C(CN)(CCCc1ccccc1)CCCc1ccccc1.O=C(O)C(F)(F)F.O=C(O)C(F)(F)F : 55

Per the record, CN(C)CCNC(=O)C(CN)(CCCc1ccccc1)CCCc1ccccc1.O=C(O)C(F)(F)F.O=C(O)C(F)(F)F has selectivity ratio of 9.1

Where these numbers come from: ChEMBL document CHEMBL1671817
